Target: rat μ (C6-MOR) opioid receptor (Rattus norvegicus)
Assay: Stimulation of [35S]GTPγS binding, MOR
Conditions: [35S]GTPγS binding, C6-MOR membranes; mean ± standard error
Reported pEC50 is given for each of the following molecules.
# log scale: pEC50 equals minus log10 of the concentration in mol/L

Below, each entry is followed by its recorded pEC50 result.
Molecule	Target system	Value measured
Cc1cc(O)cc(C)c1C[C@H](N)C(=O)N(C)[C@@H]1CCNc2ccc(Cc3ccccc3)cc21	rat μ (C6-MOR) opioid receptor (Rattus norvegicus)	8.52
Cc1cc(O)cc(C)c1C[C@H](N)C(=O)N[C@@H]1CCNc2c(Br)cc(Cc3ccccc3)cc21	rat μ (C6-MOR) opioid receptor (Rattus norvegicus)	8.92
Cc1cc(O)cc(C)c1C[C@H](N)C(=O)N[C@@H]1CCNc2ccc(CN3CCc4ccc(F)cc4C3)cc21	rat μ (C6-MOR) opioid receptor (Rattus norvegicus)	9.30

Exercise: Looking for the measured pEC50 of Cc1cc(O)cc(C)c1C[C@H](N)C(=O)N[C@@H]1CC[C@H](C)c2ccc(Cc3ccccc3)cc21 , can you help?
Solution: 7.80

Exercise: Field entry: Cc1cc(O)cc(C)c1C[C@H](N)C(=O)N(C)[C@H]1CCNc2ccc(Cc3ccccc3)cc21
Solution: 9.33

Exercise: Field entry: CCCCCc1ccc2c(c1)[C@H](NC(=O)[C@@H](N)Cc1c(C)cc(O)cc1C)CCN2
Solution: 7.92

Exercise: Field entry: Cc1cc(O)cc(C)c1C[C@H](N)C(=O)N[C@@H]1CCN(C)c2ccc(Cc3ccccc3)cc21
Solution: 8.40

Exercise: Field entry: Cc1cc(O)cc(C)c1C[C@H](N)C(=O)N[C@@H]1CCS(=O)(=O)c2ccc(Cc3ccccc3)cc21
Solution: 9.14

----------
Target: rat μ (C6-MOR) opioid receptor (Rattus norvegicus)
Test: Stimulation of [35S]GTPγS binding, MOR
Settings: [35S]GTPγS binding, C6-MOR membranes; mean ± standard error
Reported pEC50 is given for each of the following compounds.
# log scale: pEC50 equals minus log10 of the concentration in mol/L

Below, each entry is followed by its recorded pEC50 result.
COc1cc(Cl)c(C[C@H](N)C(=O)N[C@@H]2CCNc3ccc(Cc4ccccc4)cc32)c(Cl)c1 5.86
Cc1cc(O)cc(C)c1C[C@H](N)C(=O)N[C@@H]1CCOc2ccc(Cc3ccccc3)cc21 8.31

Okay, now this compound:
Exercise: Looking for the measured pEC50 of Cc1cc(O)cc(C)c1C[C@H](N)C(=O)N[C@@H]1CCNc2ccc(Cc3cc4ccccc4o3)cc21 , can you help?
Solution: 8.94

----------
Target: rat μ (C6-MOR) opioid receptor (Rattus norvegicus, UniProt P33535)
Construct: expressed in transfected cells
Sequence (P33535 whole entry): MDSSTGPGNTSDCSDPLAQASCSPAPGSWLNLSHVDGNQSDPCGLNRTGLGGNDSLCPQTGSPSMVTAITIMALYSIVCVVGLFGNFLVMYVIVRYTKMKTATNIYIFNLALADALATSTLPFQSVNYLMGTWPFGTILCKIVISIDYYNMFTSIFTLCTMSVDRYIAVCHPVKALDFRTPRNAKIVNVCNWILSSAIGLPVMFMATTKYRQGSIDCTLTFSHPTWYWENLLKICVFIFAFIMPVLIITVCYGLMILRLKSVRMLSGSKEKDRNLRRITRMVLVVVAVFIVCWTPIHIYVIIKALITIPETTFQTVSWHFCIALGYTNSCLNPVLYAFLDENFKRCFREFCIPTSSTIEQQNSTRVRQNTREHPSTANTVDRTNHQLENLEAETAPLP
Assay: Radioligand binding assay, [3H]diprenorphine displacement, MOR
Settings: displacement of 0.2 nM [3H]diprenorphine, C6-MOR membranes; mean ± standard error
Readout name: Ki (pM)
The figure you give is taken to be in pM; do not add the unit.

Compound	Ki (pM)
COc1cc(Cc2ccccc2)cc2c1NCC[C@H]2NC(=O)[C@@H](N)Cc1c(C)cc(O)cc1C [Compound 1063]	240
Cc1cc(O)cc(C)c1C[C@H](N)C(=O)N[C@@H]1CCNc2ccc(Oc3ccc(Cl)cc3)cc21 [Compound 1025]	100

Exercise: Looking for the measured Ki of Cc1cc(O)cc(C)c1C[C@H](N)C(=O)N[C@@H]1CCNc2c(CN3CCOCC3)cc(Cc3ccccc3)cc21 [Compound 1099] , can you help?
Solution: 150

Exercise: Field entry: Cc1cc(O)cc(C)c1C[C@H](N)C(=O)N[C@H]1CCNc2cc(Cc3ccccc3)ccc21 [Compound 1024]
Solution: 21100

Exercise: Field entry: CCCN1CC[C@@H](NC(=O)[C@@H](N)Cc2c(C)cc(O)cc2C)c2cc(Cc3ccccc3)ccc21 [Compound 1006]
Solution: 340

Exercise: Field entry: Cc1cc(O)cc(C)c1C[C@H](N)C(=O)N[C@@H]1CCNc2ccc(C(c3ccccc3)c3ccccc3)cc21 [Compound 1022]
Solution: 200

Exercise: Field entry: Cc1cc(O)cc(C)c1C[C@H](N)C(=O)N[C@@H]1CCNc2ccc(-c3ccccc3)cc21 [Compound 1068]
Solution: 1110

Exercise: Field entry: Cc1cc(O)cc(C)c1C[C@H](N)C(=O)N[C@@H]1CCNc2ccc(Oc3cccc(Cl)c3)cc21 [Compound 1030]
Solution: 80

Exercise: Field entry: CCCC(=O)N1CC[C@@H](NC(=O)[C@@H](N)Cc2c(C)cc(O)cc2C)c2cc(CC3Cc4ccccc4C3)ccc21 [Compound 1034]
Solution: 130

----------
Biological target: human κ (CHO-KOR) opioid receptor (Homo sapiens)
Construct: expressed in transfected cells
Assay: Stimulation of [35S]GTPγS binding, KOR
Type: biochemical
Conditions: [35S]GTPγS maximal stimulation compared with 10 μM standard U-69,593
Method: In Vitro Pharmacology-Cell Lines and Membrane Preparations. All tissue culture reagents were purchased from Gibco Life Sciences (Grand Island, N.Y., U.S.). […] Protein concentration was determined via Bradford assay using bovine serum albumin as the standard. Stimulation of [^35S]GTPyS Binding. […] The reaction was terminated by rapidly filtering through GF/C filters and washing 10 times with GTPyS buffer, and retained radioactivity was measured as described above. […]
Readout name: Emax (%)
The figure you give is taken to be in %; do not add the unit.

Below, each entry is followed by its recorded Emax result.
Molecule	Target system	Emax, %
Cc1cc(O)cc(C)c1C[C@H](N)C(=O)N[C@@H]1CCOc2ccc(Cc3ccccc3)cc21	human κ (CHO-KOR) opioid receptor (Homo sapiens)	28.3
Cc1cc(O)cc(C)c1C[C@H](N)C(=O)N(C1CC1)[C@@H]1CCNc2ccc(Cc3ccccc3)cc21	human κ (CHO-KOR) opioid receptor (Homo sapiens)	-1.84
Cc1cc(O)cc(C)c1C[C@H](N)C(=O)N[C@@H]1CCS(=O)(=O)c2ccc(Cc3ccccc3)cc21	human κ (CHO-KOR) opioid receptor (Homo sapiens)	35.8

Exercise: human κ (CHO-KOR) opioid receptor (Homo sapiens) / Emax / CC(=O)N1CC[C@@H](NC(=O)[C@@H](N)Cc2c(C)cc(O)cc2C)c2cc(Oc3ccccc3)ccc21 : value?
Solution: 37.3

Exercise: Field entry: CCCCCCc1ccc2c(c1)[C@H](NC(=O)[C@@H](N)Cc1c(C)cc(O)cc1C)CCN2
Solution: 34.6

Exercise: Field entry: Cc1cc(O)cc(C)c1C[C@H](N)C(=O)N[C@@H]1CCNc2ccc(Sc3ccccc3)cc21
Solution: 22.4

Exercise: Field entry: Cc1cc(O)cc(C)c1C[C@H](N)C(=O)N[C@@H]1CCNc2ccc(CN3CCC4(CCCCC4)CC3)cc21
Solution: 71.6

Exercise: Field entry: Cc1cc(O)cc(C)c1C[C@H](N)C(=O)N[C@@H]1CCNc2ccc(-c3ccccc3)cc21
Solution: 57.1

Exercise: Field entry: CC(=O)N1CC[C@@H](NC(=O)[C@@H](N)Cc2c(C)cc(O)cc2C)c2cc(CN3CCc4ccc(F)cc4C3)ccc21
Solution: 34.2

Exercise: Field entry: Cc1cc(O)cc(C)c1C[C@H](N)C(=O)N[C@@H]1CCCc2ccccc21
Solution: -1.05

----------
Molecular target: human κ (CHO-KOR) opioid receptor (Homo sapiens, UniProt P41145)
Construct: expressed in transfected cells
Sequence (P41145 whole entry): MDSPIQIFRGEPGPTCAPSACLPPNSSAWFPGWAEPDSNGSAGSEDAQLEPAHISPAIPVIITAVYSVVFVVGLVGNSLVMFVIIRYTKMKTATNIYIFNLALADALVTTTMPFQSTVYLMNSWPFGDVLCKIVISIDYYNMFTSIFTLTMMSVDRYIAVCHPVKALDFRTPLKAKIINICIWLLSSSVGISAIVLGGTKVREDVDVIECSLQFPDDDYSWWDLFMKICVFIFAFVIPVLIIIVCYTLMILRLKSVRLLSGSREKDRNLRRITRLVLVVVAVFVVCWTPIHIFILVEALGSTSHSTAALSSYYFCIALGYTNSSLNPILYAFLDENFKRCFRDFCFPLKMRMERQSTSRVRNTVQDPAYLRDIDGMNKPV
Experiment: Stimulation of [35S]GTPγS binding, KOR
Type: biochemical
Details: [35S]GTPγS binding, CHO-KOR membranes; mean ± standard error
Protocol: In Vitro Pharmacology-Cell Lines and Membrane Preparations. All tissue culture reagents were purchased from Gibco Life Sciences (Grand Island, N.Y., U.S.). […] Protein concentration was determined via Bradford assay using bovine serum albumin as the standard. Stimulation of [^35S]GTPyS Binding. […] The reaction was terminated by rapidly filtering through GF/C filters and washing 10 times with GTPyS buffer, and retained radioactivity was measured as described above. […]
Reported EC50 is given for each of the following molecules.
The figure you give is taken to be in µM; do not add the unit.

Below, each entry is followed by its recorded EC50 result.
Molecule	Unit label	Value measured
Cc1cc(O)cc(C)c1C[C@H](N)C(=O)N[C@@H]1CCNc2c1cc(Cc1ccccc1)cc2C(F)(F)F [Compound 1129]	µM	0.6
Cc1cc(O)cc(C)c1C[C@H](N)C(=O)N(C)[C@H]1CCNc2ccc(Cc3ccccc3)cc21 [Compound 1002]	µM	0.0072
Cc1cc(O)cc(C)c1C[C@H](N)C(=O)N[C@@H]1CCCc2ccc(-c3ccc4ccccc4c3)cc21 [Compound 1116]	µM	0.237

Okay, now this molecule:
Exercise: Looking for the measured EC50 of CC(=O)N1CC[C@@H](NC(=O)[C@@H](N)Cc2c(C)cc(O)cc2C)c2cc(CN3CCc4ccc(F)cc4C3)ccc21 [Compound 1062] , can you help?
Solution: 0.234
